Sourced from ChEMBL document CHEMBL1152720

assayed_target: Peroxisome proliferator-activated receptor delta (Homo sapiens)
Sequence (Q03181 whole entry): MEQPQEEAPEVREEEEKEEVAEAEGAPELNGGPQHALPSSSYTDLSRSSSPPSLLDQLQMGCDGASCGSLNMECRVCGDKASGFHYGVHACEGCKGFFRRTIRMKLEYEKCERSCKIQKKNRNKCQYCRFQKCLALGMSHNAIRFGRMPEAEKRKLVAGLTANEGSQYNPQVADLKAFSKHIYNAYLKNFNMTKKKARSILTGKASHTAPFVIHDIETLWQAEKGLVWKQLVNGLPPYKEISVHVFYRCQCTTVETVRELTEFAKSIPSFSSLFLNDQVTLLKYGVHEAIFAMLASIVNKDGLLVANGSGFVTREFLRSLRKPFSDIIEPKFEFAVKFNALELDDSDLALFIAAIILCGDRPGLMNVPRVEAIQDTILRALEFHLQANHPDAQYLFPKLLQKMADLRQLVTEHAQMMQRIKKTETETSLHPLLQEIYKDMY
experiment_summary: Agonist activity at human PPARdelta
For each record, write down the corresponding EC50.
Express it in µM; write the number only.

Request: Hello, please tell me recorded EC50 for this one: `C=C(COc1ccc(Cl)cc1)CSc1ccc(OCC(=O)O)c(C)c1`
Response: 0.0655

Request: Hello, please tell me recorded EC50 for this one: `C=C(COc1ccc(C(F)(F)F)cc1)CSc1ccc(OCC(=O)O)c(Cl)c1`
Response: 0.0467

Request: Hello, please tell me recorded EC50 for this one: `Cc1cc(SCC(COc2ccc(C(F)(F)F)cc2)=C(F)F)ccc1OCC(=O)O`
Response: 0.0696

Request: Hello, please tell me recorded EC50 for this one: `Cc1cc(SC/C(=C/C#N)COc2ccc(C(F)(F)F)cc2)ccc1OCC(=O)O`
Response: 0.0354

Request: Hello, please tell me recorded EC50 for this one: `C=C(COc1ccc(Cl)c(Cl)c1)CSc1ccc(OCC(=O)O)c(C)c1`
Response: 0.0498

Request: Hello, please tell me recorded EC50 for this one: `CCCC(CCC)(COc1ccc(C(F)(F)F)cc1)CSc1ccc(OCC(=O)O)c(C)c1`
Response: 0.0086

Request: Hello, please tell me recorded EC50 for this one: `C=C(COc1ccc(OC(F)(F)F)cc1)CSc1ccc(OCC(=O)O)c(C)c1`
Response: 0.0284

* * *

For each record, write down the corresponding pEC50.
assayed_target: Peroxisome proliferator-activated receptor delta (Homo sapiens)
experiment_summary: Agonist activity at human PPARdelta
pEC50: −log10 of the molar value.

Request: Hello, please tell me recorded pEC50 for this one: `C=C(CNc1ccc(C(F)(F)F)cc1)CSc1ccc(OCC(=O)O)c(C)c1`
Response: < 6.30

Request: Hello, please tell me recorded pEC50 for this one: `C=C(COc1ccc(C(F)(F)F)cc1)CSc1ccc(OCC(=O)O)c(C(F)(F)F)c1`
Response: < 6.00

Request: Hello, please tell me recorded pEC50 for this one: `C=C(COc1ccc(Cl)c(C(F)(F)F)c1)CSc1ccc(OCC(=O)O)c(C)c1`
Response: < 6.30

Request: Hello, please tell me recorded pEC50 for this one: `C=C(COc1ccc(C(F)(F)F)cc1)CSc1ccc(OCC(=O)O)cc1Cl`
Response: < 6.30

Request: Hello, please tell me recorded pEC50 for this one: `C=C(COc1ccc(C(F)(F)F)cc1)CSc1ccc(OCC(=O)O)c(OC)c1`
Response: < 6.00
